PROCEDURE TEXT: Cy5 fluorescence interference with SSB-bound oligo, artefact control for HCV NS3 helicase inhibitor project, biochemical, NIH Clinical Collection, E. coli SSB (AID 743268)
Would you please tag the item true when its fluorescence ratio is 1 or above, and false when it is below?

-- ask Reported fluorescence ratio at or above 1? `O=C1N=C(O)CN1N=Cc1ccc(-c2ccc([N+](=O)[O-])cc2)o1`
-- reply true

-- ask Reported fluorescence ratio at or above 1? O=c1[nH]c(=O)n(C2CC(O)C(CO)O2)cc1F (stereo not drawn)
-- reply true

-- ask Reported fluorescence ratio at or above 1? `CCC1=C[C@H]2CN(C1)Cc1c([nH]c3ccccc13)[C@@](C(=O)OC)(c1cc3c(cc1OC)N(C)[C@H]1[C@@](O)(C(=O)OC)[C@H](OC(C)=O)[C@]4(CC)C=CCN5CC[C@]31[C@@H]54)C2`
-- reply false

-- ask Reported fluorescence ratio at or above 1? `O=c1ncc(F)c[nH]1`
-- reply true

-- ask Reported fluorescence ratio at or above 1? `CN1CCC[C@H]1c1cccnc1`
-- reply true

-- ask Reported fluorescence ratio at or above 1? `C[C@]12CC3CC(N)(C1)C[C@@](C)(C3)C2`
-- reply true

-- ask Reported fluorescence ratio at or above 1? CCC(CO)NCCNC(CC)CO (stereo not drawn)
-- reply true

-- ask Reported fluorescence ratio at or above 1? COc1cccc2c1C(=O)c1c(O)c3c(c(O)c1C2=O)C[C@@](O)(C(C)=O)C[C@@H]3OC1CC(N)C(O)C(C)O1 (stereo partly drawn)
-- reply true

-- ask Reported fluorescence ratio at or above 1? `CN(C)CCOc1ccc(/C(=C(/CCCl)c2ccccc2)c2ccccc2)cc1`
-- reply false

-- ask Reported fluorescence ratio at or above 1? `CC1(C)C[C@@H]1C(=O)N/C(=C\CCCCSC[C@H](N)C(=O)O)C(=O)O`
-- reply true

-- ask Reported fluorescence ratio at or above 1? `COc1nc(C)nc(Cl)c1NC1=NCCN1`
-- reply true

-- ask Reported fluorescence ratio at or above 1? `CO[C@H]1/C=C/O[C@@]2(C)Oc3c(C)c(O)c4c(O)c(c(C=NN5CCN(C6CCCC6)CC5)c(O)c4c3C2=O)NC(=O)/C(C)=C\C=C\[C@H](C)[C@H](O)[C@@H](C)[C@@H](O)[C@@H](C)[C@H](OC(C)=O)[C@@H]1C`
-- reply true

###

PROCEDURE TEXT: JHH-DIPG-1 glioma cell viability, MIPE5.0 library, CellTiter-Glo luminescence, qHTS (AID 1347067);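 also: cells exposed to compound for 48 hours before readout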
CONDITIONS: JHH-DIPG-1 glioma viability, CellTiter-Glo ATP luminescence
Results filed as inconclusive are left out. Active and inactive are the calls of the source. The limit is not given here; nearly all actives have AC50 up to about 26 µM.
Tick one outcome: True for active, False for inactive

-- ask Query: recorded result category for `CCCc1nc(C(C)(C)O)c(C(=O)O)n1Cc1ccc(-c2ccccc2-c2nn[nH]n2)cc1` in this test
-- reply False

-- ask Query: recorded result category for `COC(=O)/C=C/C(=O)OC` in this test
-- reply False

-- ask Query: recorded result category for `CC(=O)NC[C@H]1CN(c2ccc(N3CCOCC3)c(F)c2)C(=O)O1` in this test
-- reply False

-- ask Query: recorded result category for `Cc1ccccc1C(=O)c1ccc(Nc2ccc(Br)cc2N)cc1Cl` in this test
-- reply True

-- ask Query: recorded result category for `COc1ccc(CCN(C)CCCOc2ccc(S(=O)(=O)c3c(C(C)C)c4ccccc4n3C)cc2)cc1OC` in this test
-- reply True

-- ask Query: recorded result category for `CC(C)C[C@H](NC(=O)[C@@H](O)[C@H](N)Cc1ccccc1)C(=O)O` in this test
-- reply False

-- ask Query: recorded result category for CC1CNc2c(cccc2S(=O)(=O)N[C@@H](CCCN=C(N)N)C(=O)N2CC[C@@H](C)C[C@@H]2C(=O)O)C1 (stereo not given in full) in this test
-- reply False

-- ask Query: recorded result category for CC(Cc1ccc(O)c(O)c1)(NN)C(=O)O (stereo not given) in this test
-- reply False

-- ask Query: recorded result category for `Nc1ccn([C@@H]2CS[C@H](CO)O2)c(=O)n1` in this test
-- reply False

-- ask Query: recorded result category for `CN(CCOc1ccc(-c2ccc3c(c2)OCO3)cc1C(C)(C)C)CC(=O)O` in this test
-- reply True

-- ask Query: recorded result category for `CCCCC[C@H](O)/C=C/[C@H]1[C@H](O)CC(=O)[C@@H]1CCCCCCC(=O)O` in this test
-- reply False

-- ask Query: recorded result category for `COc1cc2c(cc1O)CC[C@@H]1[C@@H]2CC[C@]2(C)[C@@H](O)CC[C@@H]12` in this test
-- reply True

-- ask Query: recorded result category for `Cc1coc2c1C(=O)C(=O)c1c-2ccc2c1CCCC2(C)C` in this test
-- reply True

-- ask Query: recorded result category for `CC[C@H]1OC(=O)[C@H](C)[C@@H](O[C@H]2C[C@@](C)(OC)[C@@H](O)[C@H](C)O2)[C@H](C)[C@@H](O[C@@H]2O[C@H](C)C[C@H](N(C)C)[C@H]2O)[C@](C)(O)C[C@@H](C)CN(C)[C@H](C)[C@@H](O)[C@]1(C)O` in this test
-- reply False

-- ask Query: recorded result category for O=C(O)C1CCCN(CCC=C(c2ccccc2)c2ccccc2)C1 (stereo not given) in this test
-- reply False

-- ask Query: recorded result category for CN1[C@@H]2CCC[C@H]1CC(NC(=O)c1nn(C)c3ccccc13)C2 (stereo not given in full) in this test
-- reply False

-- ask Query: recorded result category for `CC(C)(CO)[C@@H](O)C(=O)NCCC(=O)O` in this test
-- reply False

-- ask Query: recorded result category for `Nc1ncnc2c1ncn2[C@@H]1O[C@H](CO)C[C@H]1O` in this test
-- reply False

-- ask Query: recorded result category for `C[C@H](NC(=O)Cc1cc(F)cc(F)c1)C(=O)N[C@H](C(=O)OC(C)(C)C)c1ccccc1` in this test
-- reply False

-- ask Query: recorded result category for `COc1ccc([C@@H]2CNC(=O)C2)cc1OC1CCCC1` in this test
-- reply False

###

PROCEDURE TEXT: inhibitors of mitochondrial cytochrome c release, biochemical, purified mitochondria (AID 1603);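 also: mouse liver mitochondria challenged with calcium chloride; signal normalized to the plate average as 100%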
CONDITIONS: stronger effect = lower value
Kindly state cytochrome c release ratio for each of the entries shown.
When you answer, write just the number.

-- ask Specify reported cytochrome c release ratio for the molecule shown: CCCCCC(=O)O[C@]1(C(C)=O)CCC2C3CCC4=CC(=O)CC[C@]4(C)C3CC[C@@]21C (some centres not stated)
-- reply 0.32

-- ask Specify reported cytochrome c release ratio for the molecule shown: NC[C@H]1O[C@H](O[C@H]2C(O[C@@H]3O[C@H](CO)[C@@H](O)[C@H]3O)[C@@H](O)[C@H](N)C[C@@H]2N)[C@H](N)[C@@H](O)[C@@H]1O (some centres not stated)
-- reply 0.95

-- ask Specify reported cytochrome c release ratio for the molecule shown: CC(=O)O[C@H]1C(=O)[C@@]2(C)C([C@H](OC(=O)c3ccccc3)[C@]3(O)C[C@H](OC(=O)[C@H](O)[C@@H](NC(=O)c4ccccc4)c4ccccc4)C(C)=C1C3(C)C)[C@]1(OC(C)=O)CO[C@@H]1C[C@@H]2O (some centres not stated)
-- reply 1.41

-- ask Specify reported cytochrome c release ratio for the molecule shown: OC(c1cc(C(F)(F)F)nc2c(C(F)(F)F)cccc12)C1CCCCN1 (configuration not stated)
-- reply 2.44

-- ask Specify reported cytochrome c release ratio for the molecule shown: C#C[C@]1(O)CCC2C3CCc4cc(O)ccc4C3CC[C@@]21C (some centres not stated)
-- reply 1.15

-- ask Specify reported cytochrome c release ratio for the molecule shown: CC(=O)[C@@]1(O)CCC2C3C=C(Cl)C4=CC(=O)[C@@H]5CC5[C@]4(C)C3CC[C@@]21C (some centres not stated)
-- reply 1.45

-- ask Specify reported cytochrome c release ratio for the molecule shown: CC(=O)[C@H]1CCC2C3C[C@H](C)C4=CC(=O)CC[C@]4(C)C3[C@@H](O)C[C@@]21C (some centres not stated)
-- reply 0.58

###

PROCEDURE TEXT: sensitizers of A549 cells to miR-34 induction, primary screen, imaging, A549 dox-inducible miR-34, nuclei and caspase counts (AID 1347080)
CONDITIONS: A549 miR-34 inducible, Hoechst nuclei count, 48 h; measured here: total cells with miR-34 induction; stronger effect = lower value
MEASURED ATTRIBUTE: cell count
When you answer, write just the number.

-- ask Specify reported cell count for the compound shown: COc1nc(N)nc2c1ncn2C1O[C@H](CO)[C@@H](O)[C@@H]1O (stereo not given in full)
-- reply 7770

-- ask Specify reported cell count for the compound shown: `CN(C)S(=O)(=O)c1ccc2c(c1)/C(=C\CCN1CCNCC1)c1ccccc1S2`
-- reply 9850

-- ask Specify reported cell count for the compound shown: Nc1nc(NC2CC2)c2ncn(C3C=C[C@@H](CO)C3)c2n1 (stereo not given in full)
-- reply 8880

-- ask Specify reported cell count for the compound shown: CC1c2cccc(O)c2C(O)=C2C(=O)[C@]3(O)C(O)=C(C(N)=O)C(=O)[C@@H](N(C)C)[C@@H]3C[C@@H]21 (stereo not given in full)
-- reply 11000

-- ask Specify reported cell count for the compound shown: CCCCS(=N)(=O)CCC(N)C(=O)O (stereo not given)
-- reply 9560
